Molecular target: plasma purified human complement protein C3 (human) (UniProt P01024)
Sequence (P01024 23-667, chain 1 of 2): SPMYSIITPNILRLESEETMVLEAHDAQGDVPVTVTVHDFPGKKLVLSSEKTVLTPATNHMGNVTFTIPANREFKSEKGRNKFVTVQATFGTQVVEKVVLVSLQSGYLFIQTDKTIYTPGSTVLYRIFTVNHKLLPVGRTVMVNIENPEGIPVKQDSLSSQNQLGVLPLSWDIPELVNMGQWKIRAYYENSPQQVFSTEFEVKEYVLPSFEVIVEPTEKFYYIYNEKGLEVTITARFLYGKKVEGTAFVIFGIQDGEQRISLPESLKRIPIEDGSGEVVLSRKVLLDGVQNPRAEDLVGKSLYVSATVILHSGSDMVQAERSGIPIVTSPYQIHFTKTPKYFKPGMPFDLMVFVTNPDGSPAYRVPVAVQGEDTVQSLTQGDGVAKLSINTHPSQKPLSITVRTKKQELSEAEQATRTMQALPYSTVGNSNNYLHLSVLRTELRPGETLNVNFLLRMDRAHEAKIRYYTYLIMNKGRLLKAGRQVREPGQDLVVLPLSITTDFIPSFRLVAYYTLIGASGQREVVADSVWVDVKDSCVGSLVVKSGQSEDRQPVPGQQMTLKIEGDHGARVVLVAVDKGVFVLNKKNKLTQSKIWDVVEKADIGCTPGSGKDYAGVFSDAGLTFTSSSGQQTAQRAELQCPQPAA
Sequence (P01024 672-1663, chain 2 of 2): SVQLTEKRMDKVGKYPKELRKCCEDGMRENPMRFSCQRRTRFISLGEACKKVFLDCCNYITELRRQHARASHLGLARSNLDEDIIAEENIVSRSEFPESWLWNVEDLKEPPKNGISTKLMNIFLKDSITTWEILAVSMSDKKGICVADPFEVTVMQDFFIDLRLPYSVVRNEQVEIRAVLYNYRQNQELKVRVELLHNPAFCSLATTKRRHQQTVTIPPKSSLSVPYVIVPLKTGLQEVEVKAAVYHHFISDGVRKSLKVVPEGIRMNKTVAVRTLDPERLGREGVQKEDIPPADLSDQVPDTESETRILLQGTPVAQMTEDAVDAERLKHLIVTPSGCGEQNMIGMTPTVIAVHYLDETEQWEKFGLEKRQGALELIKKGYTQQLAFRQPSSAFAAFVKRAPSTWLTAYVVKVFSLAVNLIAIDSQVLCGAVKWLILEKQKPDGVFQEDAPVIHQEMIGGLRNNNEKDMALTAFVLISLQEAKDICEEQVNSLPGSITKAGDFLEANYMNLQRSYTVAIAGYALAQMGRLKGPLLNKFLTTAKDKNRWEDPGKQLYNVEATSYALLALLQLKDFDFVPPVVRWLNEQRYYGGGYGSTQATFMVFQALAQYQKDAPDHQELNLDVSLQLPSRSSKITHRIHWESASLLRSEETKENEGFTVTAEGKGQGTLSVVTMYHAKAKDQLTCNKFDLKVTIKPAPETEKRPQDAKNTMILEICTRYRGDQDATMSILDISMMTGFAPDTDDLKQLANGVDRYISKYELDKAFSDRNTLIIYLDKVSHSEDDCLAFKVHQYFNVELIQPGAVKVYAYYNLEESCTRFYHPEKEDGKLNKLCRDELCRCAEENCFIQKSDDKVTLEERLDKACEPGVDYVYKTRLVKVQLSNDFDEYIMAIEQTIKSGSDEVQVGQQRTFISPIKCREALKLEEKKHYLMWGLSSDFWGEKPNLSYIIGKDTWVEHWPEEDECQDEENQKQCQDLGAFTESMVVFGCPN
Experiment: cell-based or functional assay
metric_name: EC50 hC3 cleavage

Worked examples, 2 binders total:
[
  {
    "binder": "MTSP-1 protease domain I41E/F99L/C122S/G151N/Q175G/Q192T (enzyme) VVGGTDADEGEWPWQVSLHALGQGHECGASLISPNWLVSAAHCYIDDRGFRYSDPTQWTAFLGLHDQSQRSAPGVQERRLKRIISHPFFNDFTLDYDIALLELEKPAEYSSMVRPISLPDASHVFPAGKAIWVTGWGHTQYGGTNALILQKGEIRVINQTTCENLLPQGITPRMMCVGFLSGGVDSCTGDSGGPLSSVEADGRIFQAGVVSWGDGCAQRNKPGVYTRLPLFRDWIKENTGV",
    "EC50 hC3 cleavage": "30.2 nM"
  },
  {
    "binder": "MTSP-1 protease domain I41T/Y60gL/N95D/D96F/F97S/F99L/C122S/Q175S/Q192A (enzyme) VVGGTDADEGEWPWQVSLHALGQGHTCGASLISPNWLVSAAHCYIDDRGFRLSDPTQWTAFLGLHDQSQRSAPGVQERRLKRIISHPFFDFSTLDYDIALLELEKPAEYSSMVRPISLPDASHVFPAGKAIWVTGWGHTQYGGTGALILQKGEIRVINQTTCENLLPQSITPRMMCVGFLSGGVDSCAGDSGGPLSSVEADGRIFQAGVVSWGDGCAQRNKPGVYTRLPLFRDWIKENTGV",
    "EC50 hC3 cleavage": "247 nM"
  }
]

Query :: Identify the reported EC50 hC3 cleavage for the following entry. MTSP-1 protease domain I41D/F97R/F99L/C122S/G151Q/Q175R/D217L (enzyme) VVGGTDADEGEWPWQVSLHALGQGHDCGASLISPNWLVSAAHCYIDDRGFRYSDPTQWTAFLGLHDQSQRSAPGVQERRLKRIISHPFFNDRTLDYDIALLELEKPAEYSSMVRPISLPDASHVFPAGKAIWVTGWGHTQYGGTQALILQKGEIRVINQTTCENLLPQRITPRMMCVGFLSGGVDSCQGDSGGPLSSVEADGRIFQAGVVSWGLGCAQRNKPGVYTRLPLFRDWIKENTGV
Result :: 19.4 nM

Data origin, for the record: patent US20240018502A1
